B1: LINE1-full (parent)
chain: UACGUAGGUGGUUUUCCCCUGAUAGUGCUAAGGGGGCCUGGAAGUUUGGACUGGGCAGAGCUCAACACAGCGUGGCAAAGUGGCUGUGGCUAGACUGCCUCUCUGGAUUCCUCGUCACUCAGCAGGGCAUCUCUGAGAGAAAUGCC

# Variants of: B1
# assay protocol: self-cleavage, relative activity (ratio to wild type); higher = more cleavage; in vitro, sequencing; the parent is a self-cleaving ribozyme
Give true when the value for self-cleavage is at least 1. Give false when it is less.

- var: "A92G A140G"
  group: "false"
- var: "U13A C133A"
  group: "false"
- var: "A50G U52A"
  group: "false"
- var: "G21A A67G"
  group: "false"
- var: "C28A U85C"
  group: "false"
- var: "A30U G34A"
  group: "true"
- var: "A78G A121U"
  group: "false"
- var: "U20C A31U"
  group: "true"
- var: "A69G A94G"
  group: "false"
- var: "G58A A129U"
  group: "false"
- var: "A24U G33A"
  group: "true"
- var: "U47A A107U"
  group: "true"
- var: "G74A U96A"
  group: "false"
- var: "G32U A50G"
  group: "false"
- var: "G33U U87A"
  group: "false"
- var: "U23C A141G"
  group: "true"
- var: "C68U U132C"
  group: "false"
- var: "U112C A117U"
  group: "true"
- var: "U15A U132A"
  group: "false"
- var: "U112C G122C"
  group: "true"
- var: "C56U U109C"
  group: "false"
- var: "G55A A64G"
  group: "false"

Cited source: the RNAGym collection of RNA variant scans (doi:10.7554/elife.90254)
